# Test system: LXRa homodimer (NR concentration 270 nM)
# Protocol text: PBM binding z-score (relative to random genomic background probes); higher = stronger binding; sequences stand for … in GC…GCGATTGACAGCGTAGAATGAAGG
Value type: PBM binding z-score

>>> df
                       sequence_string           value_type  test_value
 0  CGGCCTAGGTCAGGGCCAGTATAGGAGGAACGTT  PBM binding z-score      -0.463
 1  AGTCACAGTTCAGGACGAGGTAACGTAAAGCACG  PBM binding z-score      0.0856
 2  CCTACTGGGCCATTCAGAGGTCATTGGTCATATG  PBM binding z-score        7.04
 3  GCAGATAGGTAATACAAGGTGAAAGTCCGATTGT  PBM binding z-score       0.134
 4  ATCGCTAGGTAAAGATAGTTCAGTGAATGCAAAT  PBM binding z-score     -0.0972
 5  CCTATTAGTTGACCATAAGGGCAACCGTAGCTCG  PBM binding z-score       0.502
 6  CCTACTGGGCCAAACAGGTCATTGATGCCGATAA  PBM binding z-score       0.657
 7  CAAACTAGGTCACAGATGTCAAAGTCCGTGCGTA  PBM binding z-score       0.769
 8  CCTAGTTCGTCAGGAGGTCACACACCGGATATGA  PBM binding z-score        2.37
 9  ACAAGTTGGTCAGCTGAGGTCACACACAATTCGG  PBM binding z-score        2.34
10  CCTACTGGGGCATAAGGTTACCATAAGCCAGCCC  PBM binding z-score      -0.117
11  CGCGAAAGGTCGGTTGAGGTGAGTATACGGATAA  PBM binding z-score     -0.0594

----------
# Test system: THRa:RXRa (NR concentration 90 nM, RXRa partner concentration 90 nM)
# Protocol text: PBM binding z-score (relative to random genomic background probes); higher = stronger binding; sequences stand for … in GC…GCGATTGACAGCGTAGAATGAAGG
Value type: PBM binding z-score

>>> df
                       sequence_string  test_value
 0  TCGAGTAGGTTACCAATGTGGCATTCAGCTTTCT     0.00485
 1  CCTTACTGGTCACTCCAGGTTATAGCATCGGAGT        3.26
 2  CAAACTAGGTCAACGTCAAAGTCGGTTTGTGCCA           3
 3  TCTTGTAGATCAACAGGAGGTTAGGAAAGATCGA       0.437
 4  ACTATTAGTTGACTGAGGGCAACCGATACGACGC        1.91
 5  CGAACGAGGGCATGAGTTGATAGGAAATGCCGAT        1.07
 6  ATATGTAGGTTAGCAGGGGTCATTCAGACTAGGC        4.61
 7  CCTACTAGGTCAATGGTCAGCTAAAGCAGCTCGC        2.47
 8  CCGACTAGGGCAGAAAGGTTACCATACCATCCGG        1.21
 9  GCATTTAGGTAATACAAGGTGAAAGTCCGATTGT        3.89
10  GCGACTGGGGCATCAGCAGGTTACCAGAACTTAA       0.858
11  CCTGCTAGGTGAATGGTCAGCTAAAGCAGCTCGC       0.283
12  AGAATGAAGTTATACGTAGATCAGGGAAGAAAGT      -0.563
13  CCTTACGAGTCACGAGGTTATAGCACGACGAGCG         1.9
14  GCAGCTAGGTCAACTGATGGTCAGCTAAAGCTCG         2.6
15  ATATGTAGGTTAGCTGGTGTCATTCAGACTAGGC        2.52
16  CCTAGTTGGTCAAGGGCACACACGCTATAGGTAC        1.09
17  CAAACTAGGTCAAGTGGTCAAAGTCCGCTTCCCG        3.16
18  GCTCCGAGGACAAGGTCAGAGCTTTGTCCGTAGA        3.55
19  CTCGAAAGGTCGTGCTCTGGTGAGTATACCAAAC        2.61
20  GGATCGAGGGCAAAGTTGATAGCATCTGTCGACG        1.39
21  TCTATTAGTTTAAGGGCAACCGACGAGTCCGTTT        2.69
22  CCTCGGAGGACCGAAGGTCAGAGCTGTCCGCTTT        1.62
23  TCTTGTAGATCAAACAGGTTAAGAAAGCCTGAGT       0.607
24  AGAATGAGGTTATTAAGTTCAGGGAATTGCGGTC        3.11
25  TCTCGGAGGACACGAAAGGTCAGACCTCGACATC        3.73
